Study system: P2X purinoceptor 7 (Homo sapiens, UniProt Q99572)
Sequence (Q99572 whole entry): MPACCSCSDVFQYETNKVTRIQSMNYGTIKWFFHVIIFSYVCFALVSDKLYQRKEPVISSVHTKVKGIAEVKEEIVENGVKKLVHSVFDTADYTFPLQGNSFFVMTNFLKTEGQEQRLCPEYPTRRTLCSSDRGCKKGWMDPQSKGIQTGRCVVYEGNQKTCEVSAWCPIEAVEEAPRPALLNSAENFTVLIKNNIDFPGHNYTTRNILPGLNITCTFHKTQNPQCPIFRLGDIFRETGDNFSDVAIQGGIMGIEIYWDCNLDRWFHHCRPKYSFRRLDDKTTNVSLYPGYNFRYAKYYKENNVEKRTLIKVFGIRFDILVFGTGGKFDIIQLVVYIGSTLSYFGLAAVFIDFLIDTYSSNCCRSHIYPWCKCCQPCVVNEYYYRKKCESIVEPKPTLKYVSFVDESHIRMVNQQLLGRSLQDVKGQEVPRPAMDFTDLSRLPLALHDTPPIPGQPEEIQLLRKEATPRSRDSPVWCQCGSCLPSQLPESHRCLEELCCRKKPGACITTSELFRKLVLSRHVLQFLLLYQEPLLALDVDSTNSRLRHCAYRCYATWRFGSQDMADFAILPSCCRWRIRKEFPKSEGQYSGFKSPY
Test details: Antagonist activity at human recombinant P2X7 receptor assessed as inhibition of calcium flux by FLIPR assay
pIC50: −log10 of the molar value.
Value kind: pIC50

Cc1ccccc1N/C(=N\C#N)N1CCN(C(=O)Cc2ccoc2)C(c2ccccc2)C1 (stereo not given) :: 6.66
COc1ccc(CC(=O)N2CCN(C(=Nc3ccccc3C)NC#N)[C@H](C(C)C)C2)cc1OC :: 5.89
Cc1ccccc1N=C(NC#N)N1CCN(C(=O)Cc2ccco2)C(c2ccccc2)C1 (stereo not given) :: 6.96
COc1ccc(CC(=O)N2CCN(C(=Nc3ccccc3C)NC#N)CC2c2ccccc2)cc1OC (stereo in doubt; 7) :: 7.24
COc1ccc(CC(=O)N2CCN(/C(=N/C#N)Nc3ccccc3C)CC2C(C)(C)C)cc1OC (stereo not given) :: 6.72
Cc1ccccc1N=C(NC#N)N1CCN(C(=O)Cc2ccncc2)C(c2ccccc2)C1 (stereo not given) :: 7.44
Cc1ccccc1N/C(=N\C#N)N1CCN(C(=O)Cn2nccc2C)C(c2ccccc2)C1 (stereo not given) :: 7.22
Cc1ccccc1N=C(NC#N)N1CCN(C(=O)Cc2ccccc2)C(c2ccccc2)C1 (stereo not given) :: 7.06

I: COc1ccc(C(=O)N2CCN(C(=Nc3ccccc3C)NC#N)CC2c2ccccc2)cc1OC (stereo not given)
II: COc1ccc(C(=O)N2CCN(C(=Nc3cccc4ncccc34)NC#N)CC2c2ccccc2)cc1OC (stereo not given)
III: Cc1ccccc1N/C(=N\C#N)N1CCN(C(=O)Cc2ccc3ccccc3c2)C(c2ccccc2)C1 (stereo not given)
IV: Cc1ccccc1N/C(=N\C#N)N1CCN(C(=O)CC23CC4CC(CC(C4)C2)C3)C(c2ccccc2)C1 (stereo not given)
Prompt line: Arrange the 4 compounds by rising pIC50, starting with the smallest. Order the labels as requested and give them as your answer.
Response line: IV, III, I, II
(IV: 5.82, III: 6.51, I: 7.03, II: 7.23)

1: Cc1ccccc1N/C(=N\C#N)N1CCN(C(=O)Cc2cccs2)C(c2ccccc2)C1 (stereo not given)
2: Cc1ccccc1N=C(NC#N)N1CCN(C(=O)Cc2ccc(Cl)cc2)C(c2ccccc2)C1 (stereo not given)
Prompt line: // pick larger pIC50 from pair: 1 vs 2 Reply briefly: the label of your chosen item.
Response line: 1
(1: 7.34, 2: 6.85)

P: Cc1cc(CC(=O)N2CCN(/C(=N/C#N)Nc3ccccc3C)CC2c2ccccc2)no1 (stereo not given)
Q: Cc1ccccc1N/C(=N\C#N)N1CCN(C(=O)Cc2c[nH]c3ccccc23)C(c2ccccc2)C1 (stereo not given)
Prompt line: // pick larger pIC50 from pair: P vs Q Reply briefly: the label of your chosen item.
Response line: Q
(Q: 7.00, P: 6.39)

1: Cc1cc(CC(=O)N2CCN(C(=Nc3ccccc3C)NC#N)CC2c2ccccc2)on1 (stereo not given)
2: COc1ccc(CC(=O)N2C(C)CN(C(=Nc3ccccc3C)NC#N)CC2C)cc1OC (cis isomer)
Prompt line: // pick larger pIC50 from pair: 1 vs 2 Reply briefly: the label of your chosen item.
Response line: 1
